Hello, the source for this data is patent US10961202B2, in case you need it.

Test system: MBNL1 exon 5 inclusion in DM1 myotubes
Run Description: Myotube splicing rescue assay (MBNL1 exon 5 inclusion)
Type: cell-based, human
Condition: 10 μM, 48-hour incubation
Property Measured: MBNL1 % splicing rescue at 10 μM

{"Molecule": "CN1CCN(Cc2ccc(-c3nc4cc(-c5ccc6[nH]c(-c7ccc(CN8CCN(C)CC8)cc7)nc6c5)ccc4[nH]3)cc2)CC1 [Compound 337]", "Test System": "MBNL1 exon 5 inclusion in DM1 myotubes", "Experimental Result": "73.3%"}
{"Molecule": "CN(C)CCCOc1ccc2[nH]c(-c3ccc(-c4nc5cc(OCCCN(C)C)ccc5[nH]4)c4c3OCCO4)nc2c1 [Compound 316]", "Test System": "MBNL1 exon 5 inclusion in DM1 myotubes", "Experimental Result": "87.1%"}
{"Molecule": "CN(C)CCNC(=O)c1ccc2nc(-c3ccc(-c4nc5ccc(C(=O)NCCN(C)C)cc5[nH]4)cc3)[nH]c2c1 [Compound 16]", "Test System": "MBNL1 exon 5 inclusion in DM1 myotubes", "Experimental Result": "−4.3%"}
{"Molecule": "c1cc2nc(-c3ccc(-c4nc5ccc(NC6=NCCN6C6=NCCN6)cc5[nH]4)cc3)[nH]c2cc1NC1=NCCN1C1=NCCN1 [Compound 77]", "Test System": "MBNL1 exon 5 inclusion in DM1 myotubes", "Experimental Result": "4.2%"}

###

System: MBNL1 exon 5 inclusion in DM1 myotubes
Run Description: Myotube splicing rescue assay (MBNL1 exon 5 inclusion)
Format: cell-based, human
Condition: 10 μM, 48-hour incubation
Parameter MBNL1 % splicing rescue at 10 μM: see the listing below.
Property Measured: MBNL1 % splicing rescue at 10 μM (%)

{"Smiles": "CN(C)CCCOc1ccc2nc(-c3ccc(-c4nc5ccc(OCCCN(C)C)cc5[nH]4)c(F)c3)[nH]c2c1", "Test System": "MBNL1 exon 5 inclusion in DM1 myotubes", "Property Measured": "MBNL1 % splicing rescue at 10 μM", "Experimental Result": 96.4}
{"Smiles": "COc1cc(-c2nc3ccc(SCCCN(C)C)cc3[nH]2)c(OC)cc1-c1nc2cc(SCCCN(C)C)ccc2[nH]1", "Test System": "MBNL1 exon 5 inclusion in DM1 myotubes", "Property Measured": "MBNL1 % splicing rescue at 10 μM", "Experimental Result": 32.3}
{"Smiles": "CN(C)CCNC(=O)c1ccc(-c2nc3cc(-c4ccc5[nH]c(-c6ccc(C(=O)NCCN(C)C)cc6)nc5c4)ccc3[nH]2)cc1", "Test System": "MBNL1 exon 5 inclusion in DM1 myotubes", "Property Measured": "MBNL1 % splicing rescue at 10 μM", "Experimental Result": 63.4}
{"Smiles": "O=C(NCCN1CCNCC1)c1ccc2nc(-c3ccc(-c4nc5ccc(C(=O)NCCN6CCNCC6)cc5[nH]4)cc3)[nH]c2c1", "Test System": "MBNL1 exon 5 inclusion in DM1 myotubes", "Property Measured": "MBNL1 % splicing rescue at 10 μM", "Experimental Result": 12.8}
{"Smiles": "c1cc(-c2nc3cc(-c4ccc5[nH]c(-c6ccc(OCCN7CCCC7)cc6)nc5c4)ccc3[nH]2)ccc1OCCN1CCCC1", "Test System": "MBNL1 exon 5 inclusion in DM1 myotubes", "Property Measured": "MBNL1 % splicing rescue at 10 μM", "Experimental Result": 98.1}
{"Smiles": "CN(C)CCCS(=O)(=O)c1ccc2[nH]c(-c3ccc(-c4nc5cc(S(=O)(=O)CCCN(C)C)ccc5[nH]4)cc3)nc2c1", "Test System": "MBNL1 exon 5 inclusion in DM1 myotubes", "Property Measured": "MBNL1 % splicing rescue at 10 μM", "Experimental Result": 34.0}
{"Smiles": "N=C(N)NCCNC(=O)c1ccc2nc(-c3ccc(-c4nc5ccc(C(=O)NCCNC(=N)N)cc5[nH]4)cc3)[nH]c2c1", "Test System": "MBNL1 exon 5 inclusion in DM1 myotubes", "Property Measured": "MBNL1 % splicing rescue at 10 μM", "Experimental Result": 0.0}
{"Smiles": "CN1CCC[C@H]1COc1ccc(-c2nc3cc(-c4ccc5[nH]c(-c6ccc(OC[C@@H]7CCCN7C)cc6)nc5c4)ccc3[nH]2)cc1", "Test System": "MBNL1 exon 5 inclusion in DM1 myotubes", "Property Measured": "MBNL1 % splicing rescue at 10 μM", "Experimental Result": 59.2}
{"Smiles": "Nc1ccc2nc(-c3ccc(-c4nc5ccc(NC6=NCCN6C6=NCCN6)cc5[nH]4)cc3)[nH]c2c1", "Test System": "MBNL1 exon 5 inclusion in DM1 myotubes", "Property Measured": "MBNL1 % splicing rescue at 10 μM", "Experimental Result": 0.0}
{"Smiles": "CN(C)CCCOc1ccc2nc(-c3ccc(-c4nc5ccc(OCCCN(C)C)cc5[nH]4)c(OCCO)c3)[nH]c2c1", "Test System": "MBNL1 exon 5 inclusion in DM1 myotubes", "Property Measured": "MBNL1 % splicing rescue at 10 μM", "Experimental Result": "−12.7"}
{"Smiles": "COc1cc(-c2nc3ccc(C(=O)NCCCN(C)C)cc3[nH]2)c(OC)cc1-c1nc2cc(OCCCN(C)C)ccc2[nH]1", "Test System": "MBNL1 exon 5 inclusion in DM1 myotubes", "Property Measured": "MBNL1 % splicing rescue at 10 μM", "Experimental Result": "−34.9"}
{"Smiles": "CN(C)CCc1cn(-c2ccc3nc(-c4ccc(-c5nc6ccc(-n7cc(CCN(C)C)nn7)cc6[nH]5)cc4)[nH]c3c2)nn1", "Test System": "MBNL1 exon 5 inclusion in DM1 myotubes", "Property Measured": "MBNL1 % splicing rescue at 10 μM", "Experimental Result": "−2.5"}
{"Smiles": "C#CCOc1cc(-c2nc3ccc(OCCCN(C)C)cc3[nH]2)ccc1-c1nc2ccc(OCCCN(C)C)cc2[nH]1", "Test System": "MBNL1 exon 5 inclusion in DM1 myotubes", "Property Measured": "MBNL1 % splicing rescue at 10 μM", "Experimental Result": 89.2}

###

Test system: MBNL1 exon 5 inclusion in DM1 myotubes
Run Description: Myotube splicing rescue assay (MBNL1 exon 5 inclusion)
Format: cell-based, human
Condition: 10 μM, 48-hour incubation

{"Smiles": "CN(C)CCCSc1ccc2nc(-c3ccc(-c4nc5ccc(SCCCN(C)C)cc5[nH]4)c4c3OCO4)[nH]c2c1", "Unit Annotation": "%", "MBNL1 % splicing rescue at 10 μM": 11.7}
{"Smiles": "O=C(NCCN1CCCCC1)c1ccc2nc(-c3ccc(-c4nc5ccc(C(=O)NCCN6CCCCC6)cc5[nH]4)c([N+](=O)[O-])c3)[nH]c2c1", "Unit Annotation": "%", "MBNL1 % splicing rescue at 10 μM": 23.1}
{"Smiles": "CN(C)CCCOc1cc2[nH]c(-c3ccc(-c4nc5cc(F)c(OCCCN(C)C)cc5[nH]4)c(F)c3)nc2cc1F", "Unit Annotation": "%", "MBNL1 % splicing rescue at 10 μM": 19.4}

###

Tested on: MBNL1 exon 5 inclusion in DM1 myotubes
Run Description: Myotube splicing rescue assay (MBNL1 exon 5 inclusion)
Assay type: cell-based, human
Condition: 10 μM, 48-hour incubation
Property Measured: MBNL1 % splicing rescue at 10 μM (%)

{"Compound": "CN(C)CCCOc1ccc2nc(-c3ccc(-c4nc5ccc(OCCCN(C)C)cc5[nH]4)c(OCCCl)c3)[nH]c2c1 [Compound 267]", "Unit Annotation": "%", "Experimental Result": 1.8}
{"Compound": "C#CCCCCN(C)CCNC(=O)c1ccc(-c2nc3cc(-c4ccc5[nH]c(-c6ccc(OCCCN(C)C)cc6)nc5c4)ccc3[nH]2)cc1 [Compound 403]", "Unit Annotation": "%", "Experimental Result": 90.5}
{"Compound": "C#CCCCCN(C)CCNC(=O)CCCOc1ccc2[nH]c(-c3ccc(-c4nc5cc(OCCCN(C)C)ccc5[nH]4)cc3)nc2c1 [Compound 320]", "Unit Annotation": "%", "Experimental Result": 88.2}
{"Compound": "CN(C)CCCOc1ccc2nc(-c3ccc(-c4nc5ccc(OCCCN(C)C)cc5[nH]4)c(OCCN=[N+]=[N-])c3)[nH]c2c1 [Compound 265]", "Unit Annotation": "%", "Experimental Result": 84.3}
{"Compound": "CN(C)CCCOc1ccc(-c2nc3cc(-c4ccc5[nH]c(-c6ccc(O)cc6)nc5c4)ccc3[nH]2)cc1 [Compound 348]", "Unit Annotation": "%", "Experimental Result": 75.3}
{"Compound": "CN(C)CCCOc1ccc2nc(-c3ccc(-c4nc5ccc(OCCCN(C)C)cc5[nH]4)c(Cl)c3)[nH]c2c1 [Compound 257]", "Unit Annotation": "%", "Experimental Result": 92.1}
{"Compound": "CN(C)CCCOc1ccc(-c2nc3cc(-c4ccc5[nH]c(-c6ccc(C(=O)NCCN(C)C)cc6)nc5c4)ccc3[nH]2)cc1 [Compound 346]", "Unit Annotation": "%", "Experimental Result": 74.8}
